Data provenance: patent US20230295293A1

- target_or_test_system: T1, human FRβ (Homo sapiens, UniProt P14207)
- T1 construct: CD33 signal peptide (N, cleaved yes); made in house
- T1 sequence (P14207 with tags, fused parts or gaps): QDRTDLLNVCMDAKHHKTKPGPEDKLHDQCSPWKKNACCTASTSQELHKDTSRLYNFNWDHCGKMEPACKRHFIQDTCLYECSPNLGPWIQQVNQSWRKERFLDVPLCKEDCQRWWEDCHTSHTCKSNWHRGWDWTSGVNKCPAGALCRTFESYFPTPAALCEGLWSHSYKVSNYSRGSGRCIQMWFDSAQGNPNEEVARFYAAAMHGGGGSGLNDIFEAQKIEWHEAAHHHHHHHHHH
- assay_name: HTRF antigen (IgG) binding assay
- measurement_parameters: hybridoma supernatant, 1 nM biotinylated antigen; binder >30% delta F
- Experimental: The negative control ratio was derived from nonspecific binding (NSB) control wells. Curves were analysed using GraphPad Prism software using a four-parameter logistic curve-fitting equation.
Reported HTRF IgG binding assay (% Delta F) Human FRβ values for the following molecules.
Respond with the bare value in % Delta F.

molecule	experimental_value
AB1370095: anti-FRα fully human IgG1 antibody; VH SEQ ID NO: 45, VL SEQ ID NO: 46 (antibody, V domains shown) VH: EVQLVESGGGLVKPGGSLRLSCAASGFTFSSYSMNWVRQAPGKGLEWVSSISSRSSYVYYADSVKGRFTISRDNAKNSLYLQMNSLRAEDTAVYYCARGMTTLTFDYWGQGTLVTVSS VL: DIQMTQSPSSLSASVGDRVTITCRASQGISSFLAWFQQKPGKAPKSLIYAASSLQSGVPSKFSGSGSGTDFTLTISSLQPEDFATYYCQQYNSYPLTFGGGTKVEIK	−5.87

// query I am curious: what HTRF IgG binding assay (% Delta F) Human FRβ value has been reported for AB1370035: anti-FRα fully human IgG1 antibody; VH SEQ ID NO: 41, VL SEQ ID NO: 42 (antibody, V domains shown) VH: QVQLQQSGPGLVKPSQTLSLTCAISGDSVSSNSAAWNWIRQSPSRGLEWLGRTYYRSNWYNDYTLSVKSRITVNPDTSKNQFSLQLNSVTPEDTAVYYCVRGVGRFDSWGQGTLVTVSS VL: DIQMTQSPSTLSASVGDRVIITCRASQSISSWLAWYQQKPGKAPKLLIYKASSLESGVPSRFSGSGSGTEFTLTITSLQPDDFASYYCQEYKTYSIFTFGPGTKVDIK ?
// result −3.26

// query And AB1370026: anti-FRα fully human IgG1 antibody; VH SEQ ID NO: 39, VL SEQ ID NO: 40 (antibody, V domains shown) VH: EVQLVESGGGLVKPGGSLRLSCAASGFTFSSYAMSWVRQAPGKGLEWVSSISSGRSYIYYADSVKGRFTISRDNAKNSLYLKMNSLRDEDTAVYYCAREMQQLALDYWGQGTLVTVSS VL: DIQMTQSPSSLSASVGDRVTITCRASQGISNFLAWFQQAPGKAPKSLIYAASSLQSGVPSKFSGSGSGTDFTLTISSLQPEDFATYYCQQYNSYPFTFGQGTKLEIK ?
// result −0.38
